# assayedTarget: Tyrosyl-tRNA synthetase, putative (Trypanosoma cruzi (strain CL Brener)) (UniProt Q4DSP6)
# Sequence (Q4DSP6 as listed by the source): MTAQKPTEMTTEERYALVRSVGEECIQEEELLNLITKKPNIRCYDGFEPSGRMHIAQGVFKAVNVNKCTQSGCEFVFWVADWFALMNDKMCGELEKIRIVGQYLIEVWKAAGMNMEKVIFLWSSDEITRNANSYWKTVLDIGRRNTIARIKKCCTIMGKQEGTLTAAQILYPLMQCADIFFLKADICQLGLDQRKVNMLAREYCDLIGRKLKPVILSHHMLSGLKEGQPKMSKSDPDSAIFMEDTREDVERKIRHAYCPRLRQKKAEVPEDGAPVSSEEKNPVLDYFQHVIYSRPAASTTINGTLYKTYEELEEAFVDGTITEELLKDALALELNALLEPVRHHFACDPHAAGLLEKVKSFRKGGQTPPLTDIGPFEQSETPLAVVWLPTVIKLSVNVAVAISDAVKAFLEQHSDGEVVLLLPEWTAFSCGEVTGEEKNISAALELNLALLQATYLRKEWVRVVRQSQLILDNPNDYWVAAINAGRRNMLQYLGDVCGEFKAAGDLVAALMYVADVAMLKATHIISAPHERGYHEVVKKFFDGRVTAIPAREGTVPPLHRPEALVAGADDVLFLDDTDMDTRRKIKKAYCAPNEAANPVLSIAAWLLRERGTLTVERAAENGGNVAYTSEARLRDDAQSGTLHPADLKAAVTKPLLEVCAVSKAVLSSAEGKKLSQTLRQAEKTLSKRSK
# procedureText: Trypanosoma cruzi tyrosyl tRNA synthetase (TcYRS) SOP
# Format: functional
# Design: scale not given: direction of the effect not stated beside the values
# conditionInfo: 30 µM
Hi there, I'd appreciate the recorded Percent Effect for every entry that follows.
One number for each entry, in %.

Would you mind giving Percent Effect for every compound in the list below?
1. Cc1cnn(CC2CCCN2CC(=O)N(C)Cc2ccc(C)o2)c1 (centres undefined)
2. CC(C)CC(=O)N1CC[C@@H]2[C@H](CC1)N(S(C)(=O)=O)CCS2(=O)=O
3. CC(C)(O)CN1CCN(C(=O)c2sccc2C2CC2)CC1

RESULT:
7.32
13.4
2.53

Would you mind giving Percent Effect for every compound in the list below?
1. Cc1ccc(CN2C[C@@H]3COC[C@H](C(=O)N4CCCCO4)[C@@H]3C2)o1
2. CCC(C)c1noc(C2CCN(C(=O)c3cccs3)CC2)n1 (centres undefined)
3. FC1(F)CCN(Cc2ccccn2)CC12CCN(c1cccnc1)C2 (centres undefined)
4. O=C(CCc1cscn1)N1CCCC(c2ccn[nH]2)C1 (centres undefined)

RESULT:
1. 19.2
2. 11.1
3. -2.56
4. 0

Would you mind giving Percent Effect for every compound in the list below?
1. CN(C)C(=O)N1C[C@@H]2CCCO[C@@H]2[C@H](N(C)Cc2ccco2)C1
2. CCc1noc(C(C)N2CCN(Cc3nc(C)c(C)o3)CC2)n1 (centres undefined)

RESULT:
[13.6, -7.32]

---

# assayedTarget: Arginase-2, mitochondrial (Homo sapiens) (UniProt P78540)
# Sequence (P78540 whole entry): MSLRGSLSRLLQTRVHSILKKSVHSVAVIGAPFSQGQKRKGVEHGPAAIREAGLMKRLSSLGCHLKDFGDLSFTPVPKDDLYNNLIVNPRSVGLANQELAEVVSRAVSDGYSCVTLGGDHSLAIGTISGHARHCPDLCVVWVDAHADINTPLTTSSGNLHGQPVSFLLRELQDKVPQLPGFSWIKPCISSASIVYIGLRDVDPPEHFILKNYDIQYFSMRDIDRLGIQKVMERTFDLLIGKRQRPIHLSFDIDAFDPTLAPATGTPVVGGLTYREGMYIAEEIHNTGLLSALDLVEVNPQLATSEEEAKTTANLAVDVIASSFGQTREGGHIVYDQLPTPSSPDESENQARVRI
# procedureText: in vitro enzyme assay to detect the production of urea directly proportional to the activity of Arginase II; note: in the data most compounds retested in dose-response had high values
# Format: functional
# Design: scale not given: direction of the effect not stated beside the values
# conditionInfo: 33.3 µM
measurementType: Percent Effect (%)
Numbers only, in %.

Solved cases below.
                                   compound                             assayedtarget  measurementtype  endpointvalue
0   Cc1cccc(NS(=O)(=O)c2cc(C(=O)O)oc2C)c1Cl  Arginase-2, mitochondrial (Homo sapiens) (UniProt P78540)   Percent Effect          -4.27
1  Cc1ccc(C(O)CNC(=O)NCc2nc(C)cs2)cc1 (stereo not given)  Arginase-2, mitochondrial (Homo sapiens) (UniProt P78540)   Percent Effect           1.43
2    CN(Cc1nccs1)c1nc(-c2ccccn2)nc2c1CCNCC2  Arginase-2, mitochondrial (Homo sapiens) (UniProt P78540)   Percent Effect          -2.21
3  CN(CCO)C[C@@H]1CN(C(=O)c2c(F)cccc2Cl)C[C@@H]1CO  Arginase-2, mitochondrial (Homo sapiens) (UniProt P78540)   Percent Effect           2.76
4  Cc1nn(C)c(Cl)c1C1CCCN1C(=O)c1cc(Cl)c[nH]1 (stereo not given)  Arginase-2, mitochondrial (Homo sapiens) (UniProt P78540)   Percent Effect              2
5  Cn1cnnc1C1CCCN(C(=O)c2cnc3ccccc3n2)C1 (stereo not given)  Arginase-2, mitochondrial (Homo sapiens) (UniProt P78540)   Percent Effect          -1.47
6  COc1ccc(Br)c(C(=O)NCC2CCN(S(=O)(=O)C3CC3)CC2)c1  Arginase-2, mitochondrial (Homo sapiens) (UniProt P78540)   Percent Effect          -3.18
7       FC(F)(F)COCCN1CCN(c2ccc3nncn3n2)CC1  Arginase-2, mitochondrial (Homo sapiens) (UniProt P78540)   Percent Effect          -3.92

Would you mind giving Percent Effect for every compound in the list below?
1. COCC1Cn2nnc(-c3cnn(C)c3)c2CN1Cc1ccco1 (stereo not given)
2. O=C(NCCc1ccsc1)Nc1cccnc1N1CCCC1
3. CCn1cc(CN2CC3CCCN3C[C@H]2C)c(C)n1 (stereo not given in full)
4. O=c1cc(CN2CCCC(CCc3c(F)cccc3F)C2)[nH]c(=O)[nH]1 (stereo not given)
5. Cc1nc2cc(C3CCN(Cc4cccc(F)c4F)C3)nn2c(O)c1C (stereo not given)
6. COCc1ccccc1CNc1cc(N2CCCC2CO)ncn1 (stereo not given)
7. Cc1nn(C)c(Cl)c1C1CCCN1C(=O)c1cc[nH]n1 (stereo not given)

RESULT:
[23.8, -2.88, -2.09, 14.3, -1.16, 1.07, -2]

---

# assayedTarget: Tyrosyl-tRNA synthetase, putative (Trypanosoma cruzi (strain CL Brener))
# procedureText: Trypanosoma cruzi tyrosyl tRNA synthetase (TcYRS) SOP
# Format: functional
# Design: scale not given: direction of the effect not stated beside the values
# conditionInfo: 30 µM
# Percent Effect >= 10% gives Y, anything below gives N

>>> df
                                   molecule                             assayedtarget  labelvalue
0  O=C(c1cc(=O)[nH]c(=O)[nH]1)N1CCCCC1c1ccc(F)cc1 (stereo not drawn)  Tyrosyl-tRNA synthetase, putative (Trypanosoma cruzi (strain CL Brener))           N

QUERY: Check if Percent Effect >= 10% (inclusive). Item: O=C1CC[C@H]2[C@H](CCN2C(=O)C2CCOCC2)N1Cc1ccncc1
RESULT: Y

QUERY: Check if Percent Effect >= 10% (inclusive). Item: O=C1CC(c2cccnc2)C2(CCN(S(=O)(=O)C3CC3)CC2)N1 (stereo not drawn)
RESULT: Y

QUERY: Check if Percent Effect >= 10% (inclusive). Item: Cc1nc(CN2CCN(C(=O)c3cc(C4CC4)on3)CC2)cs1
RESULT: Y

QUERY: Check if Percent Effect >= 10% (inclusive). Item: CC(=O)Nc1nc(C(=O)N2CCCC(c3cc(C)[nH]n3)C2)cs1 (stereo not drawn)
RESULT: Y

QUERY: Check if Percent Effect >= 10% (inclusive). Item: CC1CCCN(Cc2c(C3CCOCC3)[nH]c3ncccc23)C1 (stereo not drawn)
RESULT: Y

QUERY: Check if Percent Effect >= 10% (inclusive). Item: CC(C)N1CCOCC2(CN(Cc3ccco3)CCO2)C1 (stereo not drawn)
RESULT: N

QUERY: Check if Percent Effect >= 10% (inclusive). Item: CC(=O)NCC(=O)N1C[C@H](OCc2cccnc2)[C@H]2COC[C@H]21
RESULT: N

QUERY: Check if Percent Effect >= 10% (inclusive). Item: CCCC(NC(=O)c1cc(C)n(C2CC2)c1C)c1nnn[nH]1 (stereo not drawn)
RESULT: Y

QUERY: Check if Percent Effect >= 10% (inclusive). Item: CC(C)c1noc(CN(Cc2ccccc2F)C2CC2)n1
RESULT: Y

QUERY: Check if Percent Effect >= 10% (inclusive). Item: O=C(NCCC(=O)N1CCCc2ccccc21)c1c(O)cc(F)cc1F
RESULT: N

QUERY: Check if Percent Effect >= 10% (inclusive). Item: Clc1ccccc1C1(c2ccnc(-c3ncccn3)n2)CCNCC1
RESULT: Y

QUERY: Check if Percent Effect >= 10% (inclusive). Item: CN(CCc1ccccn1)S(=O)(=O)N1CCCC1c1ccco1 (stereo not drawn)
RESULT: Y

QUERY: Check if Percent Effect >= 10% (inclusive). Item: Cc1ccc(S(=O)(=O)Nc2ccc(-n3cccc3C(=O)O)c(C)c2)s1
RESULT: N

QUERY: Check if Percent Effect >= 10% (inclusive). Item: CCCNC(=O)C(C)NC(=O)CCc1ccccc1Br (stereo not drawn)
RESULT: N

QUERY: Check if Percent Effect >= 10% (inclusive). Item: CCc1ccc(CN2C[C@@H]3OCCN(c4ccnc(N(C)C)n4)[C@@H]3C2)o1
RESULT: N

QUERY: Check if Percent Effect >= 10% (inclusive). Item: Cc1cc(C)nc(CCNC(=O)C(c2ccc(F)cc2)N(C)C)n1 (stereo not drawn)
RESULT: N

---

# assayedTarget: Sialic acid-binding Ig-like lectin 9 (Homo sapiens)
# procedureText: Hs-Siglec9 ALPHAscreen SOP 20170721
# Design: scale not given: direction of the effect not stated beside the values
# conditionInfo: 10 µM
Hi there, I'd appreciate the recorded Percent Effect for every entry that follows.
# output: number + unit

In [3]: df
Out[3]:
                                   compound  endpointvalue
0  Cc1cnn(CC2CCCN2C(=O)c2ccc3[nH]nnc3c2)c1 (stereo not drawn)         -8.54%

Would you mind giving Percent Effect for every compound in the list below?
1. CC1CCN(S(=O)(=O)NCc2ccccc2Cn2cncn2)CC1
2. Cn1cc(C2CCCN2C(=O)CCCOc2ccc(F)cc2F)cn1 (stereo not drawn)

RESULT:
1. 0.681%
2. 9.73%

---

# Species: Homo sapiens
# procedureText: To identify inhibition of the IFN signalling (Jak-Stat) pathway via expression of an eGFP reporter gene under the control of an IFN-stimulated response element (ISRE) containing MxA promoter.
# Format: functional
# Design: scale not given: direction of the effect not stated beside the values
# conditionInfo: 30 µM
Hi there, I'd appreciate the recorded Percent Effect for every entry that follows.

Solved cases below.
In [3]: df
Out[3]:
                                   molecule  endpointvalue
0  CN(C)C(=O)CS(=O)(=O)Cc1cc(Cl)c2c(c1)OCO2         -13.9%
1       CC(C)N1Cc2c(C(=O)N3CCOCC3)nn(C)c2C1         -39.2%
2    CNc1cc2c(nn1)CCN(C(=O)c1cccc3c1OCO3)C2         -5.98%
3  O=C(c1ccsc1)N1CC[C@H]2C[C@@H](c3nnc(C4CC4)o3)O[C@@H]2C1         -4.29%
4  CC1CCc2nc(O)c(C(=O)NCCN(C)C)cc2C1 (configuration not stated)         -2.83%
5  COc1ccc(CNC(=O)N(Cc2ccc(F)cc2F)C2CC2)cn1          8.63%
6  O=C(c1cccc(S(=O)(=O)NCCCc2ccco2)c1)N1CCOCC1         -5.12%
7   COc1c(CNCc2ccc(C(=O)NC3CC3)cc2)c(C)nn1C          9.67%
8            CN(CCN1CCOCC1)C(=O)CCCc1ccccc1           -19%
9  CNC(=O)CS(=O)(=O)C1CCN(S(=O)(=O)c2ccccc2Br)CC1          26.1%

Would you mind giving Percent Effect for every molecule in the list below?
1. CCn1nccc1CNC(=O)C(C)n1cc2c(n1)c(C)nn2C (configuration not stated)
2. Cn1ccnc1CN1CCN(CC(O)c2ccc(F)c(F)c2)CC1 (configuration not stated)
3. CCOc1ccccc1Nc1nc2c(C)nn(C)c2c(=O)n1C
4. COc1ccnc(N2CCN(C(=O)Cc3ccc(C#N)cc3)CC2)n1
5. O=C(Cc1ccc2c(c1)OCO2)N1CCCN(c2ccccc2)CC1
6. COc1ccc(OC)c(NC(=O)c2nc3ccccc3n(C)c2=O)c1
7. Cc1cnn(CC(C)NCc2ccc(OCc3ccncc3)cc2)c1 (configuration not stated)

RESULT:
1: 2.05%; 2: 29.6%; 3: -5.39%; 4: 7.36%; 5: 10.8%; 6: 3.54%; 7: 24.2%
